Examples of molecules with documented kd follow.
# MEASURED TARGET: EGFR-mFc (Homo sapiens, UniProt P00533)
# PROCEDURE SUMMARY: SPR (BIACORE) binding kinetics, receptor-capture format
# EXPERIMENTAL CONTEXT: 37° C., EGFR-mFc captured, NB=no binding
Provide the reading as a plain figure in s⁻¹.

>>> assay_value("H1H2195P: human IgG1 Fc anti-EGFRvIII antibody; HCVR/LCVR SEQ ID NOs 18/26 (antibody, V domains shown, human IgG1 Fc) VH: QVQLVESGGGVVQPGRSRRLSCVGSGFIFSSYGMHWVRQAPGKGLEWVALIFYDGSNEYYVDSVKGRFTISRDNSKNTLYLQMNSLRAEDTAVYYCAREGYSQRYKYYFGMDVWGQGTTVTVSS VL: DIQMTQSPSSVSASVGDRVTITCRASQGISSWLAWYQQQPGKAPKLLIYAASSLQSGVPSRFSGSGSGTDFTLTISSLQPEDFATYYCQQTNSFPLTFGGGTKVEIKR")
"5.2e-05"

Okay, now this molecule:
Q: I am curious: what kd value has been reported for H1H1912N: human IgG1 Fc anti-EGFRvIII antibody with variable domains 1912; HCVR/LCVR SEQ ID NOs 66/74 (antibody, V domains shown, human IgG1 Fc) VH: EVQLVESGGGLVQPGRSLRLSCAASGFTFDDYAMHWVRQVPGKGLEWVSGISWNSGSIGYADSVKGRFTISRDNAKNSLYLQMNSLRAEDTALYYCAKDIHDYGKDYYYYYGMDVWGQGTTVTVSS VL: EIALTQSPGTLSLSPGERATLSCRASQSVSSTYLAWYQQKPGQAPRLLIYGASSRATGIPDRFSGSGSGTDFTLTISRLEPEDFAVYYCQQYDSSPITFGQGTRLEIK ?
Result: 0.000914
